Test system: biotinyl-Leu-oxazolone
Experiment: self-aminoacylation, catalytic enhancement (BLO) (fold over background); higher = more active; k-Seq, kA / k0A0; sequences stand for … in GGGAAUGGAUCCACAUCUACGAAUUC…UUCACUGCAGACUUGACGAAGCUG
Fewer inactive variants are shown than the library holds.
metric: self-aminoacylation

> print(dat)
                                         seq  value.measured
 1  AUUCACCGAGGUCAUCGGGUC [Fam2.2 aminoacylation ribozyme variant]            2.52
 2  AAGUUGGCUAAUAAUCGCAAG [Fam3.1 aminoacylation ribozyme variant]            1.34
 3  AUUCACCUAGGAUAUCGGGUG [Fam2.2 aminoacylation ribozyme variant]            7.35
 4  CUUACCCUGGUCAUCGAUUGA [Fam2.1 aminoacylation ribozyme variant]           0.839
 5  AUUCACCUAGGUCGUCGGCUG [Fam2.2 aminoacylation ribozyme variant]            2.55
 6  AAGUGUGCUAAUAAUCGCAAG [Fam3.1 aminoacylation ribozyme variant]           0.989
 7  CGACACUUCAAGCAAUCGGUG [Fam1B.1 aminoacylation ribozyme variant]            2.22
 8  AUUACCAUGGUCCUCGAGUGA [Fam2.1 aminoacylation ribozyme variant]            5.83
 9  AUUACCCAGGUCAUCGACUGA [Fam2.1 aminoacylation ribozyme variant]           0.746
10  AAGUUUGCAAAUAGUCACAAG [Fam3.1 aminoacylation ribozyme variant]           0.949
11  CUACUCCAAACACUCGGUCUG [Fam1A.1 aminoacylation ribozyme variant]            1.03
12  CUACUUCAAACAACCGGUCCG [Fam1A.1 aminoacylation ribozyme variant]           0.962
13  AAGUUUGCAAAUAGUCGCAAU [Fam3.1 aminoacylation ribozyme variant]            1.27
14  AUUUCCCUGGUCAUCGAGAGA [Fam2.1 aminoacylation ribozyme variant]             1.1
15  CUUCACCUAGGUCAUCGGGUA [Fam2.2 aminoacylation ribozyme variant]            7.28
16  CAGUUUGCUAAUAGACGCAAG [Fam3.1 aminoacylation ribozyme variant]           0.895
17  GUUCACCUAGGUCACCGGGUG [Fam2.2 aminoacylation ribozyme variant]            5.53
18  CCAAACUUGAAGCAAUCGGUC [Fam1B.1 aminoacylation ribozyme variant]           0.828
19  AACUUUGCAAAUAGUCGCAAG [Fam3.1 aminoacylation ribozyme variant]             2.8
20  CCACACUUCUAGCAAUCGAUC [Fam1B.1 aminoacylation ribozyme variant]           0.457
21  CCACACUUCAACCACUCGGUC [Fam1B.1 aminoacylation ribozyme variant]             1.1
22  CCGUACUUCAAGCAAUCGGUC [Fam1B.1 aminoacylation ribozyme variant]            1.42
23  AUUAACCUAGGUCAUCGGCUG [Fam2.2 aminoacylation ribozyme variant]            1.35
